metric_name: melting point

Note to self: melting point recorded for CC(C)Cn1c(C(=O)OC(C)(C)C)c(O)c2cc(OCc3ccccc3)ccc2c1=O was 133 to 134 °C

Field melting point (entry CCn1cc(C(=O)O)c(=O)c2cc(F)c(N3CCC(CN(C)C)C3)c(F)c21 (centres undefined) ) reads 204 to 206 °C

Recorded melting point (molecule CS(=O)(=O)c1ccc(N2CC(CO)OC2=O)cc1 (centres undefined) ): 177 to 180 °C

Entry under test: CCNCC1CCN(c2c(F)cc3c(=O)c(C(=O)O)cn(C4CC4)c3c2F)C1 (centres undefined) . Its melting point was 256 to 258 °C

# molecule COC(=O)C1=C(C=O)NC(C)=C(P2(=O)OCCCO2)C1c1ccccc1[N+](=O)[O-] (centres undefined) ; its melting point = 135 to 136 °C

Please fill in: melting point reported for O=S(CCCCCl)Cc1ccc(-c2ccccc2)cc1 (centres undefined) = 116 to 117 °C
